FYI, the data here is from the supplement of paper PMC10567573.

B1: SFRS1 (parent)
chain: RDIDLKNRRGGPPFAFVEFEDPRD

variants of: B1; assay: protein stability index of a GFP-peptide fusion (GPS, HEK-293T) (PSI 1-6); higher = more stable; conditions: c terminus: a fixed tail appended;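 also: lentivirally expressed fusions sorted by FACS into six bins by GFP to DsRed ratio, PSI derived from sequencing read proportions per bin multiplied by bin number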
Measured Endpoint: protein stability index
Answers are plain numbers.

Example entries begin here.
RDIDLKNRRGGPPFTFVEFEDPRD [A15T] = 4.54
RDIDLKNRRGGPPFAFVEFSDPRD [E20S] = 2.89
RDIDLKNRRGGPPFAFVEFEDPID [R23I] = 3.67

For each of the variants below, state protein stability index.
1. RDIDLKNRRWGPPFAFVEFEDPRD [G10W]
2. RDIDLKNRRGGPPFAFVRFEDPRD [E18R]
3. RDVDLKNRRGGPPFAFVEFEDPRD [I3V]
4. RDIDLKNRRGGPPFAFREFEDPRD [V17R]
5. RDIDLKNRRGGPPFAFVFFEDPRD [E18F]
6. RDIDLKERRGGPPFAFVEFEDPRD [N7E]

A.
1. 2.77
2. 3.13
3. 3.79
4. 4.33
5. 1.81
6. 4.26

For each of the variants below, state protein stability index.
1. RDIDLKNRRGGPPFAFVEFEDPRK [D24K]
2. RDIDLKQRRGGPPFAFVEFEDPRD [N7Q]

A.
[3.65, 3.56]
